Data origin, for the record: patent US20250250357A1

OD450 values for the binders below.
Study system: T1, human MSLN-R2-his protein (human, UniProt Q13421 391-486)
T1 construct: Self-made in HEK293E cells; also called human MSLN-R2 protein; hMSLN-R2-his; not shown: His tag
T1 sequence (Q13421 other isoform, or with tags, fused parts or gaps): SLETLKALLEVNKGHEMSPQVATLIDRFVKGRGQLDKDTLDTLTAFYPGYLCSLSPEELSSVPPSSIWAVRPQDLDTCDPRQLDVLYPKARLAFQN
Experiment: ELISA on coated antigen, no antibody (column none)
Write the answer as a number in OD450, unit excluded.

See these solved cases before continuing.
S009-F2.39.3 (antibody, human IgG1, kappa, V domains shown, Human-murine chimeric antibody: murine VH/VL on human IgG1 heavy and kappa light constant regions) VH: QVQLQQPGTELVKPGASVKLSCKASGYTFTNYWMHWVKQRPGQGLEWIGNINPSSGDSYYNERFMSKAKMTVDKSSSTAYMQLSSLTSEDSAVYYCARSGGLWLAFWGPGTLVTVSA VL: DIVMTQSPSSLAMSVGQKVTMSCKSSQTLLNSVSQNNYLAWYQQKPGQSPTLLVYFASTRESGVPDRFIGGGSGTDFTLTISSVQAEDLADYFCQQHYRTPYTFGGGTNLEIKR	0.06
S009-F2.47.1 (antibody, human IgG1, kappa, V domains shown, Human-murine chimeric antibody: murine VH/VL on human IgG1 heavy and kappa light constant regions) VH: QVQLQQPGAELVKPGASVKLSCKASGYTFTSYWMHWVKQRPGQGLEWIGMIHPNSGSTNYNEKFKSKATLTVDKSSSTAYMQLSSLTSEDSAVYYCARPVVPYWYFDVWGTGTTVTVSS VL: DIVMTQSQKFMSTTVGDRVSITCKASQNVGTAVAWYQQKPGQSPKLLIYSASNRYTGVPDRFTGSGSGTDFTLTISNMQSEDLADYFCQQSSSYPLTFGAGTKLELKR	0.06
S009-F2-56.12 (antibody, human IgG1, kappa, V domains shown, Human-murine chimeric antibody: murine VH/VL on human IgG1 heavy and kappa light constant regions) VH: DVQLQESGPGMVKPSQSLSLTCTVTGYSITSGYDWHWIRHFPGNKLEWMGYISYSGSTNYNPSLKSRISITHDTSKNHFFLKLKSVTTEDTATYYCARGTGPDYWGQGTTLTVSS VL: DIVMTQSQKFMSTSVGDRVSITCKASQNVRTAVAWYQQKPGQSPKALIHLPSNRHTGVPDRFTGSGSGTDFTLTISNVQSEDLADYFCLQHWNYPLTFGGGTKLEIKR	0.07

Pending binder:
# input Would you mind telling me what OD450 value was observed for S009-F2.38.12 (antibody, human IgG1, kappa, V domains shown, Human-murine chimeric antibody: murine VH/VL on human IgG1 heavy and kappa light constant regions) VH: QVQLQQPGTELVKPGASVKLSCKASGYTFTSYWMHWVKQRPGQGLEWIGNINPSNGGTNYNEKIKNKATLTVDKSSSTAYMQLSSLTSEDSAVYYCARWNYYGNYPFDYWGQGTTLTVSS VL: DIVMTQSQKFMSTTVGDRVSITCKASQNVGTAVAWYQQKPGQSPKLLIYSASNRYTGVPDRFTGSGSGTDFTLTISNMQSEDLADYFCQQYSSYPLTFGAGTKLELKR ?
# output 0.06
